Listed next: entries and their corresponding IC50.
# target-of-assay: PHD3 (Homo sapiens)
# Sequence (Q9H6Z9 whole entry): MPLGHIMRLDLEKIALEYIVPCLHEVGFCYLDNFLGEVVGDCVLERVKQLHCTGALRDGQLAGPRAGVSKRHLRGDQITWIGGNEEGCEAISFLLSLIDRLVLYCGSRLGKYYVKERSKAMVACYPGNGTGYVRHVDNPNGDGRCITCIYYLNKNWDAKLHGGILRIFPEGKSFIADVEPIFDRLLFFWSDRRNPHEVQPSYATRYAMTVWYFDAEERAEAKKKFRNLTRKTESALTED
# assay-info: PHD3 IC50 determination (LC/MS/MS, selectivity screening)
# Format: biochemical
Provide the reading as a plain figure in µM.

### Prompt Name the reported IC50 value associated with the compound `O=C(NC(c1ccccc1)c1ccccc1)c1cnc(-c2cccnn2)nc1O`
### Response 0.025

### Prompt Suppose we examine the compound `Cc1cccnc1CN1CCC2(CC1)C(=O)N(c1ccc(-c3ccccc3)cc1)c1ccccc12` ; what IC50 value has been reported?
### Response 2.04

### Prompt // IC50 lookup, key: `CC(C)c1nn(Cc2ccc(-c3ccc(F)cc3)cc2F)c(=O)c(C(=O)NCC(=O)O)c1O`
### Response 0.013

### Prompt Requested field: IC50. Item: `Cc1nc(C(=O)NCC(=O)O)c(O)c2ccc(Oc3ccccc3)cc12`
### Response 0.005

### Prompt Record request: IC50 value, item `O=C(O)CNC(=O)C(=O)O`
### Response 0.186
